# assayMethodText: CaMKII Cell-Based Activity: CaMKII activity in neonatal rat ventricular myocytes (NRVM) was measured by monitoring the phosphorylation level of phospholamban using high-content imaging. NRVMs were plated in a clear bottom 384-well plate in medium supplemented with 10% fetal bovine serum (FBS) and incubated at 37° C., 5% CO2 overnight. The medium was changed to a serum-free medium and compounds were dosed to the cells. The cells were incubated at 37° C., 5% CO2 for 4 hours and were then treated with 100 nM ATX-II (Alomone Labs) to activate CaMKII. 10 minutes after the addition of ATX-II, the cells were fixed with 4% formaldehyde followed by permeabilization with 0.1% triton X100. The fixed cells were stained with an anti-phospho-phospholamban primary antibody (Santa Cruz Biotechnology) and an Alexa488-labeled anti-rabbit IgG secondary antibody (Life Technologies Corporation) as well as Hoechst 33342 (Life Technologies Corporation). The cells were imaged using an ArrayScan VTI (Cellomics) and analyzed for cells containing a positive fluorescent signal at 485 nm, reported as % responder. The % responders were plotted against the compound concentration to determine the compounds EC50.
assayReadout: EC50 (nM)

>>> number("CCN(CC)[C@@H](C)CNC(=O)c1cc(NC[C@@H](C)O)nc(-c2cnn3ccc(-c4cccs4)nc23)c1")
32.7
>>> number("N[C@H]1CCC[C@@H]1NC(=O)c1ccnc(-c2cnn3ccc(-c4ccccc4)nc23)c1")
287

[1] O=C(c1ccnc(-c2cnn3ccc(-c4ccccc4)nc23)c1)N1CCCCC12CCCNC2 (stereo not drawn)
[2] CCN(CC)[C@@H](C)CNC(=O)c1cc(-c2cnn3ccc(-c4cccs4)nc23)nc(N2CCC[C@@H]2C(N)=O)c1
Select the item with the higher value of EC50 from the options 1 and 2 listed. Answer format: the label of the selected item.
2

[1] CCN(CC)[C@@H](C)CNC(=O)c1cc(-c2cnn3ccc(-c4cccs4)nc23)nc(N2CC[C@H]2C(=O)N(C)C)c1
[2] CCN(CC)[C@@H](C)CNC(=O)c1cc(-c2cnn3ccc(-c4cccs4)nc23)nc(N2CC(NC(C)=O)C2)c1
[3] CCN(CC)[C@@H](C)CNC(=O)c1cc(-c2cnn3ccc(-c4cccs4)nc23)nc(N2CC(S(=O)(=O)NC3CC3)C2)c1
[4] N[C@H]1CCN(C(=O)c2ccnc(-c3cnn4ccc(-c5cccs5)nc34)c2)C1
[5] NC[C@H]1CC(F)(F)CN1C(=O)c1ccnc(-c2cnn3ccc(-c4cccs4)nc23)c1
Let's sort these by EC50, smallest first. Go ahead? Respond with an ordered listing of the labels, as requested.
1, 2, 3, 4, 5

[P] CCN(CC)C(CNC(=O)c1ccnc(-c2cnn3ccc(-c4ccccc4)nc23)c1)C(C)C (stereo not drawn)
[Q] CCN(CC)[C@@H](C)CNC(=O)c1cc(-c2cc[nH]n2)nc(-c2cnn3ccc(-c4cccs4)nc23)c1
Compare P and Q by numeric EC50 and name the larger one. Pick one; state its label.
P

---

# assayMethodText: CaMKII Cell-Based Activity: CaMKII activity in neonatal rat ventricular myocytes (NRVM) was measured by monitoring the phosphorylation level of phospholamban using high-content imaging. NRVMs were plated in a clear bottom 384-well plate in medium supplemented with 10% fetal bovine serum (FBS) and incubated at 37° C., 5% CO2 overnight. The medium was changed to a serum-free medium and compounds were dosed to the cells. The cells were incubated at 37° C., 5% CO2 for 4 hours and were then treated with 100 nM ATX-II (Alomone Labs) to activate CaMKII. 10 minutes after the addition of ATX-II, the cells were fixed with 4% formaldehyde followed by permeabilization with 0.1% triton X100. The fixed cells were stained with an anti-phospho-phospholamban primary antibody (Santa Cruz Biotechnology) and an Alexa488-labeled anti-rabbit IgG secondary antibody (Life Technologies Corporation) as well as Hoechst 33342 (Life Technologies Corporation). The cells were imaged using an ArrayScan VTI (Cellomics) and analyzed for cells containing a positive fluorescent signal at 485 nm, reported as % responder. The % responders were plotted against the compound concentration to determine the compounds EC50.
pEC50: −log10 of the molar value.
assayReadout: pEC50

// known answers, use as guide
>>> number("CCN(CC)[C@@H](C)CNC(=O)c1cc(NCC(=O)NC)nc(-c2cnn3ccc(-c4cccs4)nc23)c1")
6.97
>>> number("CCN(CC)[C@@H](C)CNC(=O)c1cc(-c2cnn3ccc(-c4cccs4)nc23)nc(N2CC[C@H]2C(=O)N2CC(NS(C)(=O)=O)C2)c1")
6.83
>>> number("CCN(CC)[C@@H](C)CNC(=O)c1cc(N[C@H]2CCOC2)nc(-c2cnn3ccc(-c4cccs4)nc23)c1")
7.52
>>> number("NC[C@@H]1CCCCN1C(=O)c1cc(Cl)nc(-c2cnn3ccc(-c4cccs4)nc23)c1")
6.61
>>> number("CCN(CC)[C@@H](C)CNC(=O)c1cc(-c2cnn3ccc(-c4cccs4)nc23)nc(N2CC(C)(C)C2)c1")
7.03

[A] CCN[C@H](C)CNC(=O)c1ccnc(-c2cnn3ccc(-c4cccs4)nc23)c1
[B] N[C@@H]1CCC[C@H]1NC(=O)c1ccnc(-c2cnn3ccc(-c4ccccc4)nc23)c1
[C] CCN[C@@H](C)CNC(=O)c1ccnc(-c2cnn3ccc(-c4ccccc4)nc23)c1
Sort low-to-high on pEC50, please. In your reply, arrange the labels in the requested order.
B, C, A

[A] CCN[C@@H](CC)CNC(=O)c1ccnc(-c2cnn3ccc(-c4cccs4)nc23)c1
[B] CCN(CC)[C@@H](C)CNC(=O)c1cc(-c2cnn3ccc(-c4cccs4)nc23)nc(N2CC[C@H]2C(=O)NCCO)c1
Between these two entries, A and B , state which has the higher pEC50. Field: selected label. Fill in the label of the entry you choose.
A
(A: 7.36, B: 7.07)

---

# assayMethodText: CaMKII Cell-Based Activity: CaMKII activity in neonatal rat ventricular myocytes (NRVM) was measured by monitoring the phosphorylation level of phospholamban using high-content imaging. NRVMs were plated in a clear bottom 384-well plate in medium supplemented with 10% fetal bovine serum (FBS) and incubated at 37° C., 5% CO2 overnight. The medium was changed to a serum-free medium and compounds were dosed to the cells. The cells were incubated at 37° C., 5% CO2 for 4 hours and were then treated with 100 nM ATX-II (Alomone Labs) to activate CaMKII. 10 minutes after the addition of ATX-II, the cells were fixed with 4% formaldehyde followed by permeabilization with 0.1% triton X100. The fixed cells were stained with an anti-phospho-phospholamban primary antibody (Santa Cruz Biotechnology) and an Alexa488-labeled anti-rabbit IgG secondary antibody (Life Technologies Corporation) as well as Hoechst 33342 (Life Technologies Corporation). The cells were imaged using an ArrayScan VTI (Cellomics) and analyzed for cells containing a positive fluorescent signal at 485 nm, reported as % responder. The % responders were plotted against the compound concentration to determine the compounds EC50.
assayReadout: EC50 (µM)

>>> number("CN(C)c1cc(C(=O)N2CCCC[C@@H]2CN)cc(-c2cnn3ccc(-c4ccccc4)nc23)n1")
0.0532
>>> number("CCN(CC)[C@@H](C)CNC(=O)c1cc(-c2cnn3ccc(-c4cccs4)nc23)nc(N2CC[C@H]2C(=O)NCC(F)(F)F)c1")
0.0416
>>> number("CCN(CC)[C@@H](C)CNC(=O)c1cc(OCC(C)(C)O)nc(-c2cnn3ccc(-c4cccs4)nc23)c1")
0.0384
>>> number("CCN[C@H](CNC(=O)c1ccnc(-c2cnn3ccc(-c4ccccc4)nc23)c1)COc1ncccn1")
0.0459
>>> number("COC1CN(c2cc(C(=O)N3[C@H]4CCNC[C@@H]3CC4)cc(-c3cnn4ccc(-c5cccs5)nc34)n2)C1")
0.148

---

# assayMethodText: CaMKII Cell-Based Activity: CaMKII activity in neonatal rat ventricular myocytes (NRVM) was measured by monitoring the phosphorylation level of phospholamban using high-content imaging. NRVMs were plated in a clear bottom 384-well plate in medium supplemented with 10% fetal bovine serum (FBS) and incubated at 37° C., 5% CO2 overnight. The medium was changed to a serum-free medium and compounds were dosed to the cells. The cells were incubated at 37° C., 5% CO2 for 4 hours and were then treated with 100 nM ATX-II (Alomone Labs) to activate CaMKII. 10 minutes after the addition of ATX-II, the cells were fixed with 4% formaldehyde followed by permeabilization with 0.1% triton X100. The fixed cells were stained with an anti-phospho-phospholamban primary antibody (Santa Cruz Biotechnology) and an Alexa488-labeled anti-rabbit IgG secondary antibody (Life Technologies Corporation) as well as Hoechst 33342 (Life Technologies Corporation). The cells were imaged using an ArrayScan VTI (Cellomics) and analyzed for cells containing a positive fluorescent signal at 485 nm, reported as % responder. The % responders were plotted against the compound concentration to determine the compounds EC50.
assayReadout: EC50 (nM)

>>> number("CCN(CC)[C@@H](C)CNC(=O)c1cc(-c2cnn3ccc(-c4cccs4)nc23)nc(N2CC[C@H]2C(=O)N2CC(F)C2)c1")
16.2
>>> number("C[C@@]1(CNC(=O)c2ccnc(-c3cnn4ccc(-c5cccs5)nc34)c2)CCCN1")
142

[A] CCC(=O)Nc1cc(C(=O)NC[C@H](C)N(CC)CC)cc(-c2cnn3ccc(-c4cccs4)nc23)n1
[B] CCN(CC)[C@@H](C)CNC(=O)c1cc(-c2cnn3ccc(-c4cccs4)nc23)nc(N2CC[C@@H]2COC)c1
Field: lower recorded EC50 (choose A or B ) Respond with the label that goes with your answer.
A

Values compiled from ChEMBL document CHEMBL5725801.
